Value source: patent US12383631

Measured on: T1, IL-18 receptor (IL-18Rα/IL-18Rβ) on cells (HEK-Blue IL18R reporter cells, NK-92, KG-1) (human, UniProt Q13478 19-541; O95256 20-599)
T1 sequence (looked up) 1: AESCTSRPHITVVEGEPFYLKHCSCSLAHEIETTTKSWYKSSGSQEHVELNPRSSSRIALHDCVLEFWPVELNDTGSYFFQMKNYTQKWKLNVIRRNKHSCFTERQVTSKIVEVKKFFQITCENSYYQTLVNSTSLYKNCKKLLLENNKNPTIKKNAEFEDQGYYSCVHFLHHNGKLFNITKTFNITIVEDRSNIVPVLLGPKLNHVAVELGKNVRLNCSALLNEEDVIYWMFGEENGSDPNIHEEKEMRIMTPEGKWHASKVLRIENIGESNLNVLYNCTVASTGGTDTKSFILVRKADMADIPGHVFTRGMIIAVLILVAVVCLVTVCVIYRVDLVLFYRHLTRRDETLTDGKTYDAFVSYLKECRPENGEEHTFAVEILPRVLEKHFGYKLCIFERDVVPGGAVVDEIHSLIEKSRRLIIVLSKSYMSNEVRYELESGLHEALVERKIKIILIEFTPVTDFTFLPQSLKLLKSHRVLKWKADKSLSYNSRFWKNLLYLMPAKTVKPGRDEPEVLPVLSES
T1 sequence (looked up) 2: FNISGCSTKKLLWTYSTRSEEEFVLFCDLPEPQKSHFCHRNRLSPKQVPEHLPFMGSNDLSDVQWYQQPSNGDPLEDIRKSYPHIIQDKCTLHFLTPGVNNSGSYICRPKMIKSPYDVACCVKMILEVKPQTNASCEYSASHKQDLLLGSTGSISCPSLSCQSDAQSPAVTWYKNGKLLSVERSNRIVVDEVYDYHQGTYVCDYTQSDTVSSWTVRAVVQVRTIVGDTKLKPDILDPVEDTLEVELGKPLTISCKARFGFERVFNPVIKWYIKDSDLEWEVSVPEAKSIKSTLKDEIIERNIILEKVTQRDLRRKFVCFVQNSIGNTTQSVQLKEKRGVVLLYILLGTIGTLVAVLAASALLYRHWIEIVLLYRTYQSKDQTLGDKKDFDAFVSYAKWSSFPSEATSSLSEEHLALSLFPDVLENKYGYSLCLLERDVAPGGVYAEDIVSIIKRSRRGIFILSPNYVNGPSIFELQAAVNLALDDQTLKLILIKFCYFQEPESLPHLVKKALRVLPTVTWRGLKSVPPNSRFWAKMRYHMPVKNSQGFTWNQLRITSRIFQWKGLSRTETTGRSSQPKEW
Procedure details: cell-based or functional assay
Value type: EC50, IFNγ stimulation, NK92 cells (nM)
Answer in nM, number only, no unit symbol.

Record IL-18 polypeptide C143 (ligand, also called V11I, C38A, K53A, C76A, C127A) YFGKLESKLSIIRNLNDQVLFIDQGNRPLFEDMTDSDARDNAPRTIFIISMYADSQPRGMAVTISVKCEKISTLSAENKIISFKEMNPPDNIKDTKSDIIFFQRSVPGHDNKMQFESSSYEGYFLAAEKERDLFKLILKKEDELGDRSIMFTVQNED , field EC50, IFNγ stimulation, NK92 cells: 0.138

// IL-18 polypeptide C152 (ligand, also called V11I, S36A, C38A, K53A, C76A, C127A) YFGKLESKLSIIRNLNDQVLFIDQGNRPLFEDMTDADARDNAPRTIFIISMYADSQPRGMAVTISVKCEKISTLSAENKIISFKEMNPPDNIKDTKSDIIFFQRSVPGHDNKMQFESSSYEGYFLAAEKERDLFKLILKKEDELGDRSIMFTVQNED : EC50, IFNγ stimulation, NK92 cells value = 0.033

Short answer for IL-18 polypeptide C149 (ligand, also called V11I, E31A, C38A, K53A, C76A, C127A) YFGKLESKLSIIRNLNDQVLFIDQGNRPLFADMTDSDARDNAPRTIFIISMYADSQPRGMAVTISVKCEKISTLSAENKIISFKEMNPPDNIKDTKSDIIFFQRSVPGHDNKMQFESSSYEGYFLAAEKERDLFKLILKKEDELGDRSIMFTVQNED : EC50, IFNγ stimulation, NK92 cells was 0.187
